relative binding affinity (RBA) reference
biological target: Estrogen receptor (Rattus norvegicus) (UniProt P06211+Q62986); assay: Relative Binding Affinity (RBA) for estrogen receptor in ovariectomized rats; type: protein assay
The response must contain the number and no unit.

Before answering, review these 2 worked examples.
COc1ccc2c(c1)OC(C)(C)C(c1ccccc1)=C2c1ccc(OCCN2CCCC2)cc1 = 0.86
COc1ccc2c(c1)OCC(c1ccccc1)C2c1ccc(OCCN2CCCCC2)cc1 (stereo unspecified) = 1.45

Q. Return reported relative binding affinity (RBA); argument: CC1(C)Oc2cc(O)ccc2[C@@H](c2ccc(OCCN3CCCCC3)cc2)[C@@H]1c1ccccc1
A. 50.1

Q. Next up: COc1ccc2c(c1)OCC(c1ccccc1)C2c1ccc(OCCN2CCCC2)cc1 (stereo unspecified)
A. 7.35

Q. Next up: COc1ccc2c(c1)OC(C)(C)[C@@H](c1ccccc1)[C@@H]2c1ccc(OCCN2CCCC2)cc1 [LEVORMELOXIFENE]
A. 5.24

Q. Next up: CC1(C)Oc2cc(O)ccc2C(c2ccc(OCCN3CCCCC3)cc2)=C1c1ccccc1
A. 2.11
